protocol_summary: Pharmacokinetic measurements in rats (i.v., i.t., oral)
Assay type: in vivo
conditions_used: rat, i.t. dose 0.1 (nintedanib 0.42), 24 h
readout_label: lung/plasma conc ratio at time 24 h

Here is how some compounds turned out for lung/plasma conc ratio at time 24 h.
INSERT INTO measurements (compound_smiles, readout_label, assay_value) VALUES
  ('COC(=O)c1cc2c(cc1C)/C(=C(/Nc1ccc(C(=O)NCC(=O)N3CCN(CCO)CC3)cc1)c1ccccc1)C(=O)N2', 'lung/plasma conc ratio at time 24 h', '>8'),
  ('COC(=O)c1cc2c(cc1C)/C(=C(/Nc1ccc(C(=O)NCCN3CCNC(=O)C3)cc1)c1ccccc1)C(=O)N2', 'lung/plasma conc ratio at time 24 h', '>14483'),
  ('COC(=O)c1cc2c(cc1C)/C(=C(/Nc1ccc(C(=O)NCCN3CCCN(C)CC3)cc1)c1ccccc1)C(=O)N2', 'lung/plasma conc ratio at time 24 h', '>951');

We next turn to a different compound, shown below.
Input line: Entry under review: `COC(=O)c1cc2c(cc1C)/C(=C(/Nc1ccc(C(=O)NCCN3CCC(N(C)C)CC3)cc1)c1ccccc1)C(=O)N2` . Reported lung/plasma conc ratio at time 24 h?
Output line: >3787

###

protocol_summary: PAMPA permeability assay
Type: in vitro ADME
conditions_used: pH 7, PAMPA
recovery at 5 hr, 10 μM values by entry
Respond numerically; units are % and should not be typed.

Some compounds with recorded recovery at 5 hr, 10 μM:
INSERT INTO results (compound, assay_value) VALUES
  ('COC(=O)c1cc2c(cc1C)/C(=C(/Nc1ccc(C(=O)NCCC(=O)N3CCN(C)CC3)cc1)c1ccccc1)C(=O)N2', 70.4),
  ('COC(=O)c1cc2c(cc1C)/C(=C(/Nc1ccc(C(=O)N3CC[C@@H](CN(C)C)[C@H](O)C3)cc1)c1ccccc1)C(=O)N2', 69.1),
  ('COC(=O)c1cc2c(cc1C)/C(=C(/Nc1ccc(C(=O)NCCN3CCC(N(C)C)CC3)cc1)c1ccccc1)C(=O)N2', 56.5);

Input line: Record request: recovery at 5 hr, 10 μM value, item `COC(=O)c1cc2c(cc1C)/C(=C(/Nc1ccc(C(=O)NCCN3CCCN(C(C)=O)CC3)cc1)c1ccccc1)C(=O)N2`
Output line: 41.1

Input line: Proceed to `COC(=O)c1cc2c(cc1C)/C(=C(/Nc1ccc(C(=O)N(CCO)CCN(C)C)cc1)c1ccccc1)C(=O)N2`
Output line: 59.6

Input line: Request: `COC(=O)c1cc2c(cc1C)/C(=C(/Nc1ccc(C(=O)N3CCN(C)CC3)cc1)c1ccccc1)C(=O)N2`
Output line: 59.8

Input line: Next compound: `COC(=O)c1cc2c(cc1C)/C(=C(/Nc1ccc(C(=O)NCCN3CCNC(=O)C3)cc1)c1ccccc1)C(=O)N2`
Output line: 72.7

Input line: Try the compound `COC(=O)c1cc2c(cc1C)/C(=C(/Nc1ccc(C(=O)N3CCN(CCO)CC3)cc1)c1ccccc1)C(=O)N2`
Output line: 61.8

Input line: Then this compound: `COC(=O)c1cc2c(cc1C)/C(=C(/Nc1ccc(C(=O)NCCN3CCN(S(C)(=O)=O)CC3)cc1)c1ccccc1)C(=O)N2`
Output line: 71.7

###

protocol_summary: PAMPA permeability assay
Type: in vitro ADME
conditions_used: pH 7, PAMPA, pH 7, 10 μM, 5 hr
Listing of recorded Papp at 5 h, 10 µM by entry.
Lab book: enter the figure in ×10⁻⁶ cm/s, no units written.

Input line: Which Papp at 5 h, 10 µM is reported for this compound? COC(=O)c1cc2c(cc1C)/C(=C(/Nc1ccc(C(=O)NCCCN3CCOCC3)cc1)c1ccccc1)C(=O)N2 [Example 29]
Output line: 0.373

Input line: Now this one: COC(=O)c1cc2c(cc1C)/C(=C(/Nc1ccc(C(=O)NCCC(=O)N3CCN(C)CC3)cc1)c1ccccc1)C(=O)N2 [Example 10]
Output line: 0.0428

###

protocol_summary: PAMPA permeability assay
Format: in vitro ADME
conditions_used: pH 7, 10 μM, 5 hr
Where a name gives a salt, the structure may show the parent alone.
readout_label: Papp at 5 h, 10 µM (×10⁻⁶ cm/s)
Give the value, in units of ×10⁻⁶ cm/s, as a plain number.

Input line: // Papp at 5 h, 10 µM lookup, key: COC(=O)c1cc2c(cc1C)/C(=C(/Nc1ccc(C(=O)NC3CCN(C)CC3)cc1)c1ccccc1)C(=O)N2 [Example 18, formate]
Output line: 0.00383

###

Reported Lung conc i.t./i.v. Ratio at time 1.5 h by item:
protocol_summary: Pharmacokinetic measurements in rats (i.v., i.t., oral)
Type: in vivo
conditions_used: rat, 1.5 h
Where a name gives a salt, the structure may show the parent alone.

INSERT INTO assay_data (compound, readout_label, assay_value) VALUES
  ('COC(=O)c1cc2c(cc1C)/C(=C(/Nc1ccc(C(=O)NCC(=O)N3CCN(CCO)CC3)cc1)c1ccccc1)C(=O)N2', 'Lung conc i.t./i.v. Ratio at time 1.5 h', 20.1),
  ('COC(=O)c1cc2c(cc1C)/C(=C(/Nc1ccc(C(=O)NCCN3CCC(N(C)C)CC3)cc1)c1ccccc1)C(=O)N2', 'Lung conc i.t./i.v. Ratio at time 1.5 h', 8.0),
  ('COC(=O)c1cc2c(cc1C)/C(=C(/Nc1ccc(C(=O)NCCN3CCCN(C)CC3)cc1)c1ccccc1)C(=O)N2', 'Lung conc i.t./i.v. Ratio at time 1.5 h', 12),
  ('COC(=O)c1cc2c(cc1C)/C(=C(/Nc1ccc(C(=O)NCCN3CCNC(=O)C3)cc1)c1ccccc1)C(=O)N2', 'Lung conc i.t./i.v. Ratio at time 1.5 h', 51);

With those in mind, consider the next compound.
Input line: Report Lung conc i.t./i.v. Ratio at time 1.5 h for COC(=O)c1cc2c(cc1C)/C(=C(/Nc1ccc(C(=O)NCC3CCN(C)CC3)cc1)c1ccccc1)C(=O)N2 [Example 3, formate] please.
Output line: 7

###

Lung conc i.t./i.v. Ratio at time 6 h by entry:
protocol_summary: Pharmacokinetic measurements in rats (i.v., i.t., oral)
Assay type: in vivo
conditions_used: rat, 6 h
Where a name gives a salt, the structure may show the parent alone.
Keep the answer to the number alone.

INSERT INTO results (compound, assay_value) VALUES
  ('COC(=O)c1cc2c(cc1C)/C(=C(/Nc1ccc(C(=O)NCCN3CCC(N(C)C)CC3)cc1)c1ccccc1)C(=O)N2', 8.3),
  ('COC(=O)c1cc2c(cc1C)/C(=C(/Nc1ccc(C(=O)NCCN3CCCN(C)CC3)cc1)c1ccccc1)C(=O)N2', 2),
  ('COC(=O)c1cc2c(cc1C)/C(=C(/Nc1ccc(C(=O)NCC3CCN(C)CC3)cc1)c1ccccc1)C(=O)N2 [Example 3, formate]', 15);

Would you kindly look at the next entry?
Input line: State the recorded Lung conc i.t./i.v. Ratio at time 6 h for this entry: `COC(=O)c1cc2c(cc1C)/C(=C(/Nc1ccc(C(=O)NCCN3CCNC(=O)C3)cc1)c1ccccc1)C(=O)N2`
Output line: 45

###

target_entity: PDGFRβ (Homo sapiens (Human))
Sequence (P09619 33-1106): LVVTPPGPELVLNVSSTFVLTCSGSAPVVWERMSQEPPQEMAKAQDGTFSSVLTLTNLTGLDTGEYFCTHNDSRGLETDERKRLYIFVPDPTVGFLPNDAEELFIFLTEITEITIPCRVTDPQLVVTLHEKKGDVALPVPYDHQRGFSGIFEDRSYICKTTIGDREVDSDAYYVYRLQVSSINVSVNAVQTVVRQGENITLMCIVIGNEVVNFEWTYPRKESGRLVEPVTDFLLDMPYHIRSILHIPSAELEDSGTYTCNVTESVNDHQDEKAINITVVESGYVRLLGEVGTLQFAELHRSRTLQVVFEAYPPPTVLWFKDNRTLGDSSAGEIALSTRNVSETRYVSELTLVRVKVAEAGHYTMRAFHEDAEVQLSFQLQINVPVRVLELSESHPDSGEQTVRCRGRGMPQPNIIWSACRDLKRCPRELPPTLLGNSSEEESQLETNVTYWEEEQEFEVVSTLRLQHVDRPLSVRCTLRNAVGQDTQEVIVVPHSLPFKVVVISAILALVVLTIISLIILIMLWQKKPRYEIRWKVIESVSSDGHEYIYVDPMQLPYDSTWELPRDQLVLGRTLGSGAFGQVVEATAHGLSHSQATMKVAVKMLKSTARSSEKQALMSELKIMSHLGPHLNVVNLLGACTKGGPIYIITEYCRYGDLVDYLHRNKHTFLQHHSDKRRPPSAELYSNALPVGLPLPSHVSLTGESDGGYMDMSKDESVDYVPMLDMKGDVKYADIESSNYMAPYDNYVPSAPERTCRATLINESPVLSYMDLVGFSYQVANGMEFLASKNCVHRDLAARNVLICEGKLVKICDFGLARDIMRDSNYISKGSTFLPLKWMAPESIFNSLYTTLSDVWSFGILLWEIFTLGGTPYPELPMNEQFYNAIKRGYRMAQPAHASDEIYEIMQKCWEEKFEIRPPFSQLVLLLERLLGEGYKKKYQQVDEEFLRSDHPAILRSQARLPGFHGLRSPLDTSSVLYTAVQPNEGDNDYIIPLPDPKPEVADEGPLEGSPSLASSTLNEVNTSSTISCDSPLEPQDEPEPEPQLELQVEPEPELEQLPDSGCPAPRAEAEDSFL
protocol_summary: PDGFRβ enzyme inhibition (ADP-Glo assay)
Type: biochemical
conditions_used: mean, n = 2 (nintedanib n = 34)
Structures can show the parent of a compound that is named as a salt.
# TRUE = Ki below 10 nM (exclusive); FALSE = Ki at/above 10 nM

Some solved cases for reference:
INSERT INTO results (compound, class_name) VALUES
  ('COC(=O)c1cc2c(cc1C)/C(=C(/Nc1ccc(C(=O)N(C)[C@H]3CN(C)C[C@@H]3O)cc1)c1ccccc1)C(=O)N2 [Example 48]', 'TRUE'),
  ('COC(=O)c1cc2c(cc1C)/C(=C(/Nc1ccc(C(=O)N3CCN(CCO)CC3)cc1)c1ccccc1)C(=O)N2 [Example 19]', 'TRUE');

Input line: Field: below-cutoff. Rule: recorded Ki strictly less than 10 nM. Subject: COC(=O)c1cc2c(cc1C)/C(=C(/Nc1ccc(C(=O)N3CCC(O)(CN4CCCC4)CC3)cc1)c1ccccc1)C(=O)N2 [Example 37, formate]
Output line: TRUE

Input line: Similarly, COC(=O)c1cc2c(cc1C)/C(=C(/Nc1cccc(C(=O)N(C)CCN(C)C)c1)c1ccccc1)C(=O)N2 [Example 16] ?
Output line: FALSE

Input line: // next record CNC(=O)CN(C)CCNC(=O)c1ccc(N/C(=C2\C(=O)Nc3cc(C(=O)OC)c(C)cc32)c2ccccc2)cc1 [Example 54]
Output line: FALSE

###

Measured Cell viability at 300 nM (%) of individual entries
Test system: MRC5 cells
protocol_summary: Cell viability assay in MRC5 cells (MTT)
conditions_used: 300 nM
Structures can show the parent of a compound that is named as a salt.
Quick note: give the figure in %, leave out the unit.

Worked examples, 3 molecules total:
INSERT INTO measurements (molecule, readout_label, result_unit, assay_value) VALUES
  ('COC(=O)c1cc2c(cc1C)/C(=C(/Nc1ccc(S(=O)(=O)NCCN(C)C)cc1)c1ccccc1)C(=O)N2 [Example 25, formate]', 'Cell viability at 300 nM (%)', '%', 74.7),
  ('COC(=O)c1cc2c(cc1C)/C(=C(/Nc1ccc(C(=O)N(CCO)CCN(C)C)cc1)c1ccccc1)C(=O)N2', 'Cell viability at 300 nM (%)', '%', 129.3),
  ('COC(=O)c1cc2c(cc1C)/C(=C(/Nc1ccc(C(=O)NCC3CCN(CCO)CC3)cc1)c1ccccc1)C(=O)N2 [Example 50]', 'Cell viability at 300 nM (%)', '%', 107.9);

Input line: Bench note: what Cell viability at 300 nM (%) did `COC(=O)c1cc2c(cc1C)/C(=C(/Nc1ccc(C(=O)NCCN3CCCN(C(C)=O)CC3)cc1)c1ccccc1)C(=O)N2` show?
Output line: 74.4
